# ASSAYED_SYSTEM: Casein kinase I isoform alpha (Homo sapiens) (UniProt P48729)
# Sequence (P48729 2-337 limits assumed): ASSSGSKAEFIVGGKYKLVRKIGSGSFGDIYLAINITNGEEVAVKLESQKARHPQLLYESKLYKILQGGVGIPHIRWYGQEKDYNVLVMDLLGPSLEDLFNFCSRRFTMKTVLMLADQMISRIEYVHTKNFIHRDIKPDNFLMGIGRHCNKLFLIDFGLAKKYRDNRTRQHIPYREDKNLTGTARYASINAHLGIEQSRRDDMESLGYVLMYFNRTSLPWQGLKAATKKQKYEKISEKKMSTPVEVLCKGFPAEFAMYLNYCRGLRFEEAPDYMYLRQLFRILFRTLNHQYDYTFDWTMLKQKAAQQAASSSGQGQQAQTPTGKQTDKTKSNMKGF
# SETTINGS: at 0.1 µM
ENDPOINT_LABEL: inhibition (%)

>>> print(df.to_string())
                                 chem_smiles  unit  result_value
 0  CCn1c(-c2nonc2N)nc2c(C#CC(C)(C)O)nc(OCCNC)cc21     %          3.87
 1  Nc1ccc(C#Cc2cncnc2Nc2ccc(OCc3cccc(F)c3)c(Cl)c2)cc1     %          3.47
 2  FC(F)(F)c1ccc(-c2nn3ncccc3c2-c2ccnc(Nc3ccc4c(c3)OCCO4)n2)cc1     %          9.84
 3  CN(C)c1cc2c(Nc3ccc4c(cnn4Cc4ccccc4)c3)ncnc2cn1     %          0.64
 4  Cc1ccc2c(-c3ccnc(Nc4ccc5c(c4)OCCO5)n3)c(-c3ccc(C(F)(F)F)cc3)nn2n1     %          0.54
 5  O=S(=O)(CCOCc1ccc(-c2ccc3ncnc(Nc4ccc(OCc5cccc(F)c5)c(Cl)c4)c3c2)o1)c1ccccc1     %          -0.6
 6    N#Cc1cccc(Nc2nccc(-c3cnn4ncccc34)n2)c1     %          28.9
 7  Cc1ccc(Nc2ccnc(Nc3cccc(C(N)=O)c3)n2)cc1O     %          1.66
 8             CCn1c(-c2nonc2N)nc2ccc(F)cc21     %           3.7
 9  CN(C)C(=O)O[C@@H]1CN[C@@H](C#Cc2cc3ncnc(Nc4ccc(OCc5cccc(F)c5)c(Cl)c4)c3s2)C1     %          9.15
10  NS(=O)(=O)c1cccc(-c2cc3ccncc3cc2OCc2ccccc2)c1     %          0.06
11  NS(=O)(=O)c1ccc(N/N=C2\C(=O)Nc3ccc(Cl)cc32)cc1     %          3.27
12  O=C(Nc1ccc(Oc2ccc3[nH]c(NC(=O)c4ccco4)nc3c2)cc1)Nc1cc(C(F)(F)F)ccc1F     %          0.72
13  Nc1nccc(-c2c(-c3ccc(F)cc3)nn3cc(C(F)(F)F)ccc23)n1     %          0.88
14  Cc1cc(O)cc(C)c1/C=C/c1cncc(C(=O)N(C)C)c1     %          1.94
15  CN(C)C(=O)O[C@H]1CN[C@H](C#Cc2cc3ncnc(Nc4ccc(OCc5cccc(F)c5)c(Cl)c4)c3s2)C1     %         -3.89
16  COC(=O)c1ccc2c(c1)C(=Cc1cc(Br)c(O)c(Br)c1)C(=O)N2     %          1.76
17  CC(C)c1ccc(Nc2nccc(-c3cnn4ncccc34)n2)cc1     %         -5.73
18  COc1cc2ncn(-c3cc(OCc4ccccc4S(C)(=O)=O)c(C#N)s3)c2cc1OC     %          3.32
19  CN(c1ccc(NC(=O)Nc2ccc(OC(F)(F)F)cc2)cc1)c1ccnc(Nc2cccc(S(N)(=O)=O)c2)n1     %          2.69
20  NS(=O)(=O)c1ccc(-c2cc3ccncc3cc2OCc2ccccc2)cc1     %          4.76

====

# ASSAYED_SYSTEM: Serine/threonine-protein kinase Nek7 (Homo sapiens) (UniProt Q8TDX7);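 also: figures are averaged percent inhibition of NEK7 kinase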
# Sequence (Q8TDX7 whole entry, looked up): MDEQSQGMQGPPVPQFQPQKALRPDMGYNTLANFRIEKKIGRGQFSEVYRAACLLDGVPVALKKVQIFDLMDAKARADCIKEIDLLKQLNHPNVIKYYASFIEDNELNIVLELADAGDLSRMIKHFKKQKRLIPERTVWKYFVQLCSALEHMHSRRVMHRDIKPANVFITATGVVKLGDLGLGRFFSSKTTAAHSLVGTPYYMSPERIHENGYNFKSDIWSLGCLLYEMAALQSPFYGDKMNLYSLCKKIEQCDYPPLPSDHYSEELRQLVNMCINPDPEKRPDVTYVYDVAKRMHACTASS
# SETTINGS: at 0.1 µM
ENDPOINT_LABEL: inhibition (%)

In [3]: df
Out[3]:
                                chem_smiles  result_value
0  OCc1ccc(-c2nc(-c3ccccn3)c(-c3ccc4c(c3)OCO4)[nH]2)cc1          3.26
1  CN(c1ccc(NC(=O)Nc2ccc(OC(F)(F)F)cc2)cc1)c1ccnc(Nc2cccc(S(N)(=O)=O)c2)n1          1.37
2   COc1ccc2ncnc(Nc3ccc(OCc4ccccc4)cc3)c2c1          2.47
3  FC(F)(F)c1ccc(-c2nn3ncccc3c2-c2ccnc(Nc3ccc4c(c3)OCCO4)n2)cc1         -5.04
4  COc1ccc(-c2nn3ncccc3c2-c2ccnc(Nc3cccc(C(F)(F)F)c3)n2)cc1          1.12

====

# ASSAYED_SYSTEM: Tyrosine-protein kinase Tec (Homo sapiens) (UniProt P42680)
# Sequence (P42680 whole entry): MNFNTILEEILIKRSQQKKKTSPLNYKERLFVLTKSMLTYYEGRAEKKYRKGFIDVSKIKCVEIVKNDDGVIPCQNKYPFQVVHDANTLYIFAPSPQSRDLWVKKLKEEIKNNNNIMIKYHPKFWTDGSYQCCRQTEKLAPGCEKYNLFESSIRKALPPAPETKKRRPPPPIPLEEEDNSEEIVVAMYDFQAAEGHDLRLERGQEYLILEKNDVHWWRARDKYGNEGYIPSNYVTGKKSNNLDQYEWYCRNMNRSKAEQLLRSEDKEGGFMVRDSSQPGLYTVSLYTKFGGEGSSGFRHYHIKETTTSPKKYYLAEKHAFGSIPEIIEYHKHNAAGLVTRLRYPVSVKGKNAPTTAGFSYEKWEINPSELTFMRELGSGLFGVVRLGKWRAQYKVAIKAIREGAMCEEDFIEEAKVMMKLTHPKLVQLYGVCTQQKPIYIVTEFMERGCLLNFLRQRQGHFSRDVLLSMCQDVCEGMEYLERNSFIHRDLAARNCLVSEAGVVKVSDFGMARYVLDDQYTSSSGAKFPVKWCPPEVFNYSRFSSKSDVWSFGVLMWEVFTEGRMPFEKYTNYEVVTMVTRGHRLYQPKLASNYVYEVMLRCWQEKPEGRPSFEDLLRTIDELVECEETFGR
# SETTINGS: at 0.1 µM
# Description: GSK_PKIS: TEC mean inhibition at 0.1 uM [Nanosyn]
Give fulfilled when the value for inhibition is at least 4%. Give not fulfilled when it is less.

In [3]: df
Out[3]:
                                chem_smiles  assigned_category
0  NS(=O)(=O)c1cccc(Nc2cc(-c3ccc(F)cc3)n[nH]2)c1      not fulfilled
1  Oc1cccc(-c2nc(-c3ccccc3)[nH]c2-c2ccncc2)c1          fulfilled
2  Cc1cc(-c2ccccn2)cc(C)c1/C=C/c1cncc(-c2nn[nH]n2)c1          fulfilled
3  CCS(=O)(=O)c1ccc(OC)c(Nc2ncc(-c3cccc(OC)c3)o2)c1          fulfilled
4  COc1cc(Nc2nccc(-c3cnn4ncccc34)n2)cc(OC)c1          fulfilled
5  Nc1nccc(-c2c(-c3ccc(F)cc3)nn3cc(C(F)(F)F)ccc23)n1      not fulfilled
6   NC(=O)c1cccc(Nc2nccc(Nc3cccc(F)c3)n2)c1          fulfilled
7  CCn1c(-c2nonc2N)nc2c(C#CC(C)(C)O)nc(OCCNC)cc21          fulfilled
8             c1ccc(Nc2ncc(-c3ccccc3)o2)cc1          fulfilled

====

# ASSAYED_SYSTEM: Casein kinase I isoform alpha (Homo sapiens)
# SETTINGS: at 1 µM
ENDPOINT_LABEL: inhibition (%)

                                chem_smiles  result_value
0  C[C@@H](Oc1cc(-n2cnc3ccc(OC[C@@H](O)CO)cc32)sc1C(N)=O)c1ccccc1Cl          3.43
1  Nc1nccc(C#Cc2cncnc2Nc2ccc(OCc3cccc(F)c3)c(Cl)c2)n1          5.01
2  COc1cc2ncn(-c3cc(OCc4ccccc4S(C)(=O)=O)c(C#N)s3)c2cc1OC          3.58
3    N#Cc1cccc(Nc2nccc(-c3cnn4ncccc34)n2)c1          69.8
4  Oc1cccc(-c2nc(-c3ccccc3)[nH]c2-c2ccncc2)c1          23.9
5  COc1cccc(-n2ncc3c(N/N=C/c4ccc(S(C)(=O)=O)cc4)ncnc32)c1          5.91
6  Cc1ccc2c(-c3ccnc(Nc4cccc(C(F)(F)F)c4)n3)c(-c3ccccc3)nn2n1          59.2
7  O=C1Nc2ccccc2/C1=C/Nc1ccc2[nH]c(=O)[nH]c2c1          21.8
8  CCn1c(-c2nonc2N)nc2c(C#CC(C)(C)O)nc(OCCNC)cc21          8.13
9       COc1cc2ncnc(Nc3ccc(C)c(O)c3)c2cc1OC          5.91

====

# ASSAYED_SYSTEM: RAC-gamma serine/threonine-protein kinase (Homo sapiens)
# SETTINGS: at 0.1 µM
# Description: GSK_PKIS: AKT3 mean inhibition at 0.1 uM [Nanosyn]
ENDPOINT_LABEL: inhibition

>>> df
                                    compound  endpoint_label  result_value
 0   COc1ccc2ncnc(Nc3ccc(OCc4ccccc4)cc3)c2c1      inhibition         0.84%
 1  C[C@@H](Oc1cc(-n2cnc3ccc(OC[C@@H](O)CO)cc32)sc1C(N)=O)c1ccccc1Cl      inhibition         0.07%
 2  Cc1ccc2c(c1)/C(=N/Nc1ccc(S(N)(=O)=O)cc1)C(=O)N2      inhibition        -1.25%
 3  Oc1cccc(-c2nc(-c3ccccc3)[nH]c2-c2ccncc2)c1      inhibition         0.82%
 4   Cc1ccc(O)cc1Nc1ccnc2ccc(S(C)(=O)=O)cc12      inhibition         1.87%
 5  O=C(Nc1ccc(Oc2ccc3[nH]c(NC(=O)c4ccco4)nc3c2)cc1)Nc1cc(C(F)(F)F)ccc1F      inhibition        -3.47%
 6  O=C1Nc2ccccc2/C1=C/Nc1ccc2[nH]c(=O)[nH]c2c1      inhibition            1%
 7  Cc1ccc(NC(=O)CC2CC2)cc1-c1ccc(C(=O)NCC2CC2)cc1      inhibition         1.47%
 8  COc1cccc(-n2nc(C)c3c(N/N=C(\C)c4ccncc4)ncnc32)c1      inhibition        -0.78%
 9  COc1cccc(-n2ncc3c(N/N=C/c4ccc(S(C)(=O)=O)cc4)ncnc32)c1      inhibition        -8.29%
10  C[C@@H](Oc1cc(-n2cnc3ccc(OCC4CCN(C)CC4)cc32)sc1C(N)=O)c1ccccc1C(F)(F)F      inhibition        -1.91%
11  Nc1nccc(-c2c(-c3ccc(F)cc3)ncn2CCCN2CCOCC2)n1      inhibition         1.64%
12  CN(C)c1cc2c(Nc3ccc4c(cnn4Cc4ccccc4)c3)ncnc2cn1      inhibition         0.46%
13  CCn1c(-c2nonc2N)nc2c(C#CC(C)(C)O)nc(OCCNC)cc21      inhibition         23.1%
14  CS(=O)(=O)CCNCc1nc(-c2ccc3ncnc(Nc4ccc(OCc5cccc(C(F)(F)F)c5)cc4)c3c2)cs1      inhibition         0.84%
15  Nc1ccc(C#Cc2cncnc2Nc2ccc(OCc3cccc(F)c3)c(Cl)c2)cc1      inhibition          0.3%
16   Cc1ccc(C(=O)NC2CC2)cc1-c1ccc2[nH]ncc2c1      inhibition        -4.12%
17  CCCN1CCCC(c2ccc(Nc3nc(Nc4cc(F)ccc4C(N)=O)c4cc[nH]c4n3)c(OC)c2)C1 (stereo not given)      inhibition         0.52%
18  Cc1ccc2c(-c3ccnc(Nc4cccc(C(F)(F)F)c4)n3)c(-c3ccccc3)nn2n1      inhibition         0.73%
19  O=S(=O)(CCOCc1ccc(-c2ccc3ncnc(Nc4ccc(OCc5cccc(F)c5)c(Cl)c4)c3c2)o1)c1ccccc1      inhibition        -0.84%

Provenance of the data: ChEMBL document CHEMBL1961873
